The measured values listed here are drawn from the supplement of paper PMC10567573.

B1: TFE3 (parent)
chain: FHLGLEDILMEEEEGVVGGLSGGA

variants of: B1; assay: protein stability index of a GFP-peptide fusion (GPS, HEK-293T) (PSI 1-6); higher = more stable; details: c terminus: a fixed tail appended;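 also: lentivirally expressed fusions sorted by FACS into six bins by GFP to DsRed ratio, PSI derived from sequencing read proportions per bin multiplied by bin number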
Consider the following partition of reported protein stability index into named classes: L = under 3, M = from 3 up to 4, H = 4 and over

As a guide, the following entries are already answered.
{"SEQUENCE CODE": "FHLGLEDKLMEEEEGVVGGLSGGA [I8K]", "CATEGORY LABEL": "H"}
{"SEQUENCE CODE": "FHLGLEDILMEEEEGHVGGLSGGA [V16H]", "CATEGORY LABEL": "M"}
{"SEQUENCE CODE": "FHLGLEDILMEEEWGVVGGLSGGA [E14W]", "CATEGORY LABEL": "L"}
{"SEQUENCE CODE": "FHLGLEDILMEEEEWVVGGLSGGA [G15W]", "CATEGORY LABEL": "L"}
{"SEQUENCE CODE": "FHLGLEDILMEETEGVVGGLSGGA [E13T]", "CATEGORY LABEL": "M"}
{"SEQUENCE CODE": "FHLGLEDILMEEEEGVVGYLSGGA [G19Y]", "CATEGORY LABEL": "L"}
{"SEQUENCE CODE": "FHLRLEDILMEEEEGVVGGLSGGA [G4R]", "CATEGORY LABEL": "L"}
{"SEQUENCE CODE": "FHLVLEDILMEEEEGVVGGLSGGA [G4V]", "CATEGORY LABEL": "L"}

// bin(item) where item = FHLGLEDILMEEEETVVGGLSGGA [G15T] M

// bin(item) where item = FHLGLEDILMEEEEGVVGGLSGGV [A24V] M

// bin(item) where item = FHLGLEDILMEEEEGVVGGLSLGA [G22L] M

// bin(item) where item = FHLGLEDILMEEEEGVMGGLSGGA [V17M] M

// bin(item) where item = FHLGMEDILMEEEEGVVGGLSGGA [L5M] M

// bin(item) where item = FHLGTEDILMEEEEGVVGGLSGGA [L5T] H

// bin(item) where item = FGLGLEDILMEEEEGVVGGLSGGA [H2G] H

// bin(item) where item = FHLGLEDIYMEEEEGVVGGLSGGA [L9Y] M

// bin(item) where item = FHHGLEDILMEEEEGVVGGLSGGA [L3H] H

// bin(item) where item = FHLGLEDILMEEEEGVVHGLSGGA [G18H] M

// bin(item) where item = FHLGLEDILMEFEEGVVGGLSGGA [E12F] L

// bin(item) where item = FALGLEDILMEEEEGVVGGLSGGA [H2A] H
